Provide the recorded TGI for the entries that follow.
Test system: OVCAR-8 ovarian
Test: NCI tumour cell line growth inhibition, 48 h
Answer with a number only, understood to be in µM.

Query: Any idea what TGI was measured for CN(C)CCNC(=O)c1cccc2c(NC(CCCN=C(N)N)C(=O)O)c3ccccc3nc12 (stereo not drawn) ?
Reply: 30.5

Query: Any idea what TGI was measured for Cc1[nH]c(-c2ccccc2)c(O)c1C(=O)OC1CC(C)CCC1C(C)C (stereo not drawn) ?
Reply: 29.9

###

Tested on: OVCAR-8 ovarian
Experiment: NCI tumour cell line growth inhibition, 48 h; in the data active = GI50 below about 0.43 µM; inactive = the rest
Please state which outcome applies, choosing from active, inactive

Query: What outcome does the record of this test show for CN1c2cccc[c]2[Sn]([CH3])([CH3])[c]2ccccc21 ?
Reply: active

Query: What outcome does the record of this test show for COc1ccc(N2CCN(c3nc(-c4ccccn4)nc4sc5c(c34)CCCCCC5)CC2)cc1 ?
Reply: inactive

Query: What outcome does the record of this test show for CS(=O)(=O)Nc1cc(-c2ccc3ncnc(Nc4ccc(OCc5ccccn5)c(Cl)c4)c3c2)cnc1Cl ?
Reply: inactive

Query: What outcome does the record of this test show for CC1(/C=C/c2ccc(-c3ccccc3)cc2)CCn2cnc3ncnc(c32)N1O (stereo unspecified) ?
Reply: active

Query: What outcome does the record of this test show for COc1cccc(/C=C/C(=O)c2cc3c(N)c(C(=O)Nc4ccccc4)sc3nc2C)c1 ?
Reply: inactive

Query: What outcome does the record of this test show for Cc1cc(S(=O)(=O)Nc2nc3ccccc3s2)c(SCc2ccccc2)cc1Cl ?
Reply: inactive

Values compiled from PubChem BioAssay (NCI).
